- protocol: amyloid nucleation score (Sup35N fusion, yeast selection) (log enrichment); library NNK2; higher = more nucleation; inactive = no reads after selection;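 note: zero at mode of non-aggregating sequences after 7 days selection at 30°C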
propertyMeasured: amyloid nucleation score

| substance | result |
| --- | --- |
| LHWFMVEDH | 0.19 |
| ETYLVFV | 0.072 |
| YYICDLLHSRCEVKLD | -0.551 |
| QIIRPCVRRDKTGFIALVMG | 1.27 |
| DSVVLGGYGGFAAHKTRVIF | 0.213 |
| HEECIGSCCYGRWSCGTTLW | 4.84 |
| NFCSMRSKVTCNSDDKFWNH | -1.13 |
| GLCSIYNWYLVFQVIRTLSW | 2.41 |
| YYFNVLFSCYEEWFMFSSTS | inactive |
| SSSKRNSKDPSGLGLVCVE | 0.795 |
| AGSSSVNQITCLH | -0.22 |
| CAQVRLQSAFIYSYMASVGR | 3.32 |
| CLDPTDTMMRW | 0.82 |
| CFVQLCACRYTIRNWGFRWL | inactive |
| HWRFFCMDHNFILSVKDVVA | inactive |
| MRTIGGD | 0.348 |
| IADQTMISRYSRS | 5.89 |

----------
- protocol: amyloid nucleation score (Sup35N fusion, yeast selection) (log enrichment); library NNK2; higher = more nucleation; inactive = no reads after selection
Listing of entries alongside the reported amyloid nucleation score.

| residueCodes | amyloid nucleation score |
| --- | --- |
| LYHVISSNWHEDNDMT | 0.003 |
| PSFTLMDVFRI | 0.701 |
| GRRLSGILRRDGGANGCHRR | 0.098 |
| FSCHWAIMTRSGKVEVCNNQ | 5.47 |
| GYCYYVPFMVGP | 0.817 |
| FGRRLQGRHINSNDQWGRQA | 0.339 |
| VSFKTSGKLCTAWFVWGLF | -0.108 |
| VGFGVFVV | 0.213 |
| HVTMCKYYFWYMEIVVVKP | -0.456 |

----------
- protocol: amyloid nucleation score (Sup35N fusion, yeast selection) (log enrichment); library NNK3; higher = more nucleation; inactive = no reads after selection

| substance | amyloid nucleation score |
| --- | --- |
| DISFLSRSRYRKSHGVVNFS | 0.206 |
| KRFVFPLLIR | inactive |
| QLMPKRAVKRDYRDSSWSGV | inactive |
| SFNHFQCLFISPLTRCARGV | 1.51 |
| VQSMKMGPVRISKCNDKSER | inactive |
| PNVMNNFVCITDPIPVGSMW | inactive |
| SRQARCKPCVSCWDRCMWMI | inactive |
| SKGICNFMCVL | 3.37 |
| SSFLFVKLLIMNRLVQKIYA | inactive |
| FTVTCPGREANIYIFFRGGR | 1.37 |
| NCCNPCFVNLQSR | 2.66 |
| LTWYWKNGCSLLPLIGLSGN | inactive |
| NQEQWWLATAYPNVSWSIKL | inactive |
| WFYVIGTVMWYSLNAGYYMW | inactive |
| DYYLNLGGK | inactive |
| CWRVYYLNVWVEVES | inactive |
| GSCKVADAPCSHARR | -0.331 |
| VWGYSMYVLQIWERYSSNV | 1.01 |
| MIMYIGVCVSVGLFEDYAYR | 0.044 |
| FPSSMGRQYIGVCKYLSDPP | inactive |
| NPDCSQTMARGLRNSLVFLQ | inactive |
| QEGGRWEPQKGRWESQAYLS | -0.062 |
| MSLRSSRHTPVDSQISSMEM | inactive |
| NKWYSNLQNCCCSLNHTGEG | 0.624 |
| MDGPGVTFCPEVLDKWDGSI | -0.205 |
| ICCKYGDAKRLVCWSQKSRK | inactive |
| VCMVEDFCCLPFDMLLYWLT | inactive |
| VVCIHLVVDTVC | inactive |
| QARIWSSSVGAFSNCHSCRC | inactive |
| PPTLQMVTVVGPKGWKVMFS | inactive |
| LWVAVYMFGTCWMRDEVDDV | inactive |
| SSVVGMSGLG | inactive |
| RYLDQLI | inactive |
| IFVVSNFISSSMNYRSYCYL | inactive |
| VYPWFA | inactive |
| CYMYVRNGHLEIFLMGLSGF | inactive |
